tested on: Male Wistar rats; assay: Pain test for analgesic activity (modified Randall-Selitto, Brewers' yeast inflamed paw); assay type: in vivo; conditions: po; number of effective animals / total number of animals in group; 50 mg/kg orally; pain threshold 1 and 2 hours after administration; effective = at least twice mean pain threshold of controls
Recorded responders at 50 mg/kg values for a group of compounds are listed next.

[
  {
    "COMPOUND": "CC1=CC(C)(C)Nc2ccc(Oc3cccnc3)nc21 [compound 18]",
    "responders at 50 mg/kg [%]": 80
  },
  {
    "COMPOUND": "CCOc1ccc2c(n1)C(C)=CC(C)(C)N2 [Compound No. 2]",
    "responders at 50 mg/kg [%]": 20
  },
  {
    "COMPOUND": "CCCCOc1ccc2c(n1)C(C)=CC(C)(C)N2 [Compound No. 4]",
    "responders at 50 mg/kg [%]": 60
  },
  {
    "COMPOUND": "COc1ccc2c(n1)C(C)=CC(C)(C)N2C [Compound No. 25]",
    "responders at 50 mg/kg [%]": 40
  },
  {
    "COMPOUND": "CC1=CC(C)(C)Nc2ccc(Oc3ccccc3)nc21 [Compound No. 5]",
    "responders at 50 mg/kg [%]": 60
  },
  {
    "COMPOUND": "COc1ccc2c(n1)C(C)=CC(C)(C)N2 [Compound No. 1]",
    "responders at 50 mg/kg [%]": 60
  },
  {
    "COMPOUND": "COc1ccc2c(n1)C(C)=CC(C)(C)N2C(C)=O [Compound No. 27]",
    "responders at 50 mg/kg [%]": 20
  },
  {
    "COMPOUND": "CC1=CC(C)(C)Nc2ccc(Cl)nc21 [Compound No. 13]",
    "responders at 50 mg/kg [%]": 60
  }
]
